Reference source for all entries: ChEMBL document CHEMBL5226392

For each record, write down the corresponding viability at 6 h, 50 µM.
experiment: Cytotoxicity against TNF-alpha induced human 293/NFkB-Luc cells assessed as increase in cell survival at 50 uM preincubated for 15 mins followed by TNF-alpha induction and measured after 6 hrs by MTT assay relative to control; assay type: toxicity, cell-based; details: TNF-alpha induced 293/NFkB-Luc cells, time 375 min, read-out: Activity
Numbers only, in %.

                      smiles_representation  readout_unit  measured_number
0  COc1ccccc1[C@]1(O)c2ccc3[nH]c(C)c(OC)c(=O)c3c2[C@@H]2CC[C@H]1O2             %             86.7
1  COc1ccccc1[C@@H]1c2ccc3[nH]c(C)c(OC)c(=O)c3c2[C@@H]2CC[C@H]1O2             %             79.6
2  CCCCCCCC[C@H]1CCC(=O)c2[nH]c(C)c(OC)c(=O)c21             %             85.8

Working through the 5 compounds below one at a time, give viability at 6 h, 50 µM for each.
1. COc1c(C)[nH]c2c(c1=O)[C@@H](CCCCC(=O)c1ccccc1)CCC2=O
2. COc1c(C)[nH]c2ccc3c(c2c1=O)[C@@H]1CCC[C@@]3(c2ccccc2)O1
3. COc1c(C)[nH]c2c(OC)ccc(C(=O)CCCCc3ccccc3)c2c1=O
4. COc1c(C)[nH]c2cccc(CCCCCc3ccccc3)c2c1=O
5. CC[C@@H](C)[C@@H]1NC(=O)[C@@H](NC(=O)[C@H](Cc2ccccc2)N(C)C)[C@@H](c2ccccc2)Oc2ccc(cc2)/C=C\NC1=O

-- reply
82.2
89
76.8
76.7
86.4

-- ask Field request: viability at 6 h, 50 µM | item: COc1c(C)[nH]c2c(c1=O)[C@H](CCCCCc1ccccc1)CCC2
-- reply 91.8

====

assay: Cytotoxicity against LPS-stimulated mouse RAW264.7 cells assessed as cell growth inhibition preincubated for 15 mins followed by LPS stimulation and measured after 20 hrs by CCK-8 assay; type: toxicity, cell-based; conditions: LPS-stimulated RAW264.7 cells
assay_readout: IC50 at 20 h (µM)
Give bare numbers, in µM.

Fill in IC50 at 20 h for each of the 3 compounds listed.
1. COc1c(C)n(OC)c2c(c1=O)[C@@H](CCCCCc1ccccc1)CCC2
2. COc1c(C)n(OC)c2c(c1=O)[C@@H](CCCCCc1ccc(O)cc1)CCC2
3. COc1c(C)[nH]c2cccc(CCCCCc3ccccc3)c2c1=O

-- reply
1: 32.2; 2: 25.9; 3: 33.3

====

assay: Cytotoxicity against TNF-alpha induced human 293/NFkB-Luc cells assessed as increase in cell survival at 50 uM preincubated for 15 mins followed by TNF-alpha induction and measured after 6 hrs by MTT assay relative to control; format: toxicity, cell-based; details: TNF-alpha induced 293/NFkB-Luc cells, time 375 min, read-out: Activity
Kindly state viability at 6 h, 50 µM for each of the entries shown.
One number for each entry, in %.

Here are 5 molecules together with their reported answers.
>>> df
                      smiles_representation  measured_number
0  CCCCCCCC[C@H]1CC[C@@H](OC)c2[nH]c(C)c(OC)c(=O)c21             90.3
1  COc1c(C)n(OC)c2c(c1=O)[C@@H](CCCCC(=O)c1ccccc1)CCC2             82.7
2  COc1c(CO)[nH]c2c(c1=O)[C@@H](CCCCCc1ccccc1)CCC2=O              100
3  COc1c(C)[nH]c2c(c1=O)[C@@H](CCCCCc1ccccc1)CCC2             77.2
4  CCCCCCC[C@@H](O)c1ccc(OC)c2[nH]c(C)c(OC)c(=O)c12             72.6

Record viability at 6 h, 50 µM per entry; entries follow.
1. COc1c(C)n(OC)c2c(c1=O)[C@@H](CCCCCc1ccc(O)cc1)CCC2
2. CCCCCCCCc1ccc(O)c2[nH]c(C)c(OC)c(=O)c12
3. CCCCCCCC[C@H]1CCC(=O)c2[nH]c(CO)c(OC)c(=O)c21

-- reply
85.3
83.6
93.1

Please report viability at 6 h, 50 µM for every entry that follows.
1. COc1c(C)[nH]c2c(c1=O)[C@@H](CCCCCc1ccccc1)CCC2=O
2. COc1c(C)[nH]c2c(OC)ccc(CCCCCCC(C)=O)c2c1=O
3. CC[C@H](C)[C@@H]1NC(=O)[C@H](NC(=O)/C=C/c2ccccc2)[C@H](c2ccccc2)Oc2ccc(cc2)/C=C\NC1=O

-- reply
1: 88.4; 2: 75.8; 3: 100

Batch request: viability at 6 h, 50 µM per item, same order as input.
1. COc1ccc(OC)c([C@@]2(O)c3ccc4[nH]c(C)c(OC)c(=O)c4c3[C@@H]3CC[C@H]2O3)c1
2. O=C1N/C=C\c2ccc(cc2)O[C@@H](c2ccccc2)[C@H](NC(=O)[C@@H]2CCCN2C(=O)/C=C/c2ccccc2)C(=O)N[C@H]1Cc1ccccc1
3. CCCCCCC[C@H](O)c1ccc(OC)c2[nH]c(C)c(OC)c(=O)c12
4. CCCCCCCC[C@H]1CCCc2[nH]c(C)c(OC)c(=O)c21
5. COc1c(C)[nH]c2c(O)ccc(CCCCCc3ccccc3)c2c1=O
6. COc1c(C)[nH]c2c(c1=O)[C@@H](CCCCCc1ccc(O)cc1)CCC2=O
7. CCCCCCCC(=O)c1ccc(OC)c2[nH]c(C)c(OC)c(=O)c12
8. COc1c(C)[nH]c2c(c1=O)[C@@H](CCCCCc1ccccc1)CC[C@H]2OC

-- reply
[74.5, 76.6, 75.6, 90.8, 83.5, 80.5, 86.7, 69.9]

-- ask Given the entry COc1c(C)n(OC)c2c(c1=O)[C@@H](CCCCCc1ccccc1)CCC2 , report its measured viability at 6 h, 50 µM.
-- reply 89

====

experiment: Cytotoxicity against LPS-stimulated mouse RAW264.7 cells assessed as cell survival at 50 uM preincubated for 15 mins followed by LPS stimulation and measured after 20 hrs by CCK-8 assay relative to control; format: toxicity, cell-based; conditions: LPS-stimulated RAW264.7 cells, time 1215 min, read-out: Activity
Please respond with reported viability at 20 h, 50 µM for every item in the list.

Consider the following illustrative entries.
                      smiles_representation  result
0  CCCCCCCC[C@H]1CCC(=O)c2[nH]c(CO)c(OC)c(=O)c21   50.9%
1  COc1c(C)[nH]c2c(c1=O)[C@@H](CCCCC(=O)c1ccccc1)CCC2=O   74.5%
2  CC[C@@H](C)[C@@H]1NC(=O)[C@@H](NC(=O)[C@H](Cc2ccccc2)N(C)C)[C@@H](c2ccccc2)Oc2ccc(cc2)/C=C\NC1=O   94.8%
3  COc1c(C)[nH]c2c(c1=O)[C@@H](CCCCCc1ccccc1)CCC2=O   67.5%
4  COc1c(CO)[nH]c2c(c1=O)[C@@H](CCCCCc1ccccc1)CCC2=O   50.8%

Fill in viability at 20 h, 50 µM for each of the 8 compounds listed.
1. COc1ccc(OC)c([C@@]2(O)c3ccc4[nH]c(C)c(OC)c(=O)c4c3[C@@H]3CC[C@H]2O3)c1
2. O=C1N/C=C\c2ccc(cc2)O[C@@H](c2ccccc2)[C@H](NC(=O)[C@@H]2CCCN2C(=O)/C=C/c2ccccc2)C(=O)N[C@H]1Cc1ccccc1
3. CC[C@H](C)[C@@H]1NC(=O)[C@H](NC(=O)/C=C/c2ccccc2)[C@H](c2ccccc2)Oc2ccc(cc2)/C=C\NC1=O
4. COc1c(C)[nH]c2c(c1=O)[C@@H](CCCCCc1ccccc1)CC[C@H]2OC
5. COc1c(C)n(OC)c2c(c1=O)[C@@H](CCCCCc1ccc(O)cc1)CCC2
6. CCCCCCCC[C@H]1CC[C@@H](OC)c2[nH]c(C)c(OC)c(=O)c21
7. CCCCCCC[C@@H](O)c1ccc(OC)c2[nH]c(C)c(OC)c(=O)c12
8. CCCCCCCC[C@H]1CCC(=O)c2[nH]c(C)c(OC)c(=O)c21

-- reply
1. 100%
2. 100%
3. 100%
4. 57.2%
5. < 50%
6. 51.4%
7. 84.9%
8. 63.5%

# return viability at 20 h, 50 µM for each item in the list
1. COc1c(C)[nH]c2c(OC)ccc(C(=O)CCCCc3ccccc3)c2c1=O
2. COc1ccccc1[C@@H]1c2ccc3[nH]c(C)c(OC)c(=O)c3c2[C@@H]2CC[C@H]1O2
3. COc1c(C)[nH]c2c(c1=O)[C@@H](CCCCCc1ccccc1)CCC2
4. CCCCCCCC[C@H]1CCCc2[nH]c(C)c(OC)c(=O)c21

-- reply
82.8%
100%
84.3%
67.6%

Each compound below has a recorded value; state its viability at 20 h, 50 µM.
1. COc1ccccc1[C@]1(O)c2ccc3[nH]c(C)c(OC)c(=O)c3c2[C@@H]2CC[C@H]1O2
2. CCCCCCCCc1ccc(O)c2[nH]c(C)c(OC)c(=O)c12

-- reply
1: 100%; 2: 70.2%
